# Test system: Escherichia coli IAI1
# method notes: fold change of Putrescine concentration vs plate DMSO controls (fold change (ratio)); higher = more amine produced, active = hit call of the paper (significant change in both replicates, either direction)
# stated conditions: incubation time: 27 h, anaerobic, 37 °C
Counter-ions that a name gives are not always drawn.
Please respond with reported fold change of Putrescine concentration for every item in the list.
One number for each entry.

Examples with their reported fold change of Putrescine concentration follow.
[
  {
    "compound": "Nc1ccc(C(=O)NCC(=O)O)cc1 [Aminohippuric acid] (20 µM)",
    "fold change of Putrescine concentration": 1.04
  },
  {
    "compound": "Nc1nc(F)nc2c1ncn2[C@@H]1O[C@H](CO)[C@@H](O)[C@@H]1O [Fludarabine] (20 µM)",
    "fold change of Putrescine concentration": 0.546
  },
  {
    "compound": "Clc1ccc(CO/N=C(\\Cn2ccnc2)c2ccc(Cl)cc2Cl)c(Cl)c1 [Oxiconazole nitrate] (20 µM)",
    "fold change of Putrescine concentration": 1.04
  },
  {
    "compound": "O=C1c2c(O)cccc2Cc2cccc(O)c21 [Anthralin] (20 µM)",
    "fold change of Putrescine concentration": 1.02
  },
  {
    "compound": "N[C@@H](Cc1c[nH]c2ccccc12)C(=O)O [L-Tryptophan] (20 µM)",
    "fold change of Putrescine concentration": 0.985
  },
  {
    "compound": "CO[C@@H]1[C@@H](OC(N)=O)[C@@H](O)[C@H](Oc2ccc3c(O)c(NC(=O)c4ccc(O)c(CC=C(C)C)c4)c(=O)oc3c2C)OC1(C)C [Novobiocin sodium salt] (20 µM)",
    "fold change of Putrescine concentration": 1.18
  },
  {
    "compound": "Nc1ccc(S(=O)(=O)Nc2ccccn2)cc1 [Sulfapyridine] (20 µM)",
    "fold change of Putrescine concentration": 1.01
  },
  {
    "compound": "C[C@H]1[C@@H](O)O[C@@H]2O[C@@]3(C)CC[C@H]4[C@H](C)CC[C@@H]1[C@@]24OO3 [Artenimol] (20 µM)",
    "fold change of Putrescine concentration": 1.02
  }
]

Working through the 2 compounds below one at a time, give fold change of Putrescine concentration for each.
1. CC(C)(Oc1ccc(Cl)cc1)C(=O)O [Clofibric acid] (20 µM)
2. CC(C)[N+](C)(CCOC(=O)C1c2ccccc2Oc2ccccc21)C(C)C [Propantheline bromide] (20 µM)

Result:
1. 0.957
2. 1.02

Please go through the list and note fold change of Putrescine concentration for each compound.
1. c1ccc2[nH]c(-c3cscn3)nc2c1 [Tiabendazole] (20 µM)
2. CSc1ccc2c(c1)N(CCC1CCCCN1C)c1ccccc1S2 (stereo unspecified) [Thioridazine hydrochloride] (20 µM)
3. Cc1cccc(CN2CCN(C(c3ccccc3)c3ccc(Cl)cc3)CC2)c1 (stereo unspecified) [Meclozine dihydrochloride] (20 µM)

Result:
[0.997, 1.04, 1]

Answer for every listed entry: what is its fold change of Putrescine concentration? The entries follow.
1. O=C1[C@H](CC[C@H](O)c2ccc(F)cc2)[C@@H](c2ccc(O)cc2)N1c1ccc(F)cc1 [Ezetimibe] (20 µM)
2. Cc1ccc2c(c1)c1c3n2CCNC3CCC1 (stereo unspecified) [Pirlindole mesylate] (20 µM)
3. N=C(N)NC(=N)NCCc1ccccc1 [Phenformin hydrochloride] (20 µM)

Result:
[1.02, 1.06, 0.964]

FYI, the data here is from the supplement of paper PMC12494721.
